test.method.notes: qHTS Assay for Inhibitors of Hepatitis C Virus (HCV)
condition.description: Huh7.5.1 HCVcc-Cre infection, luciferase reporter, 44 h; series mostly up to 41.8 µM
Among all 340,000 compounds or so, about 12,000 (3.5%) were called active. Not shown: some 18% with an inconclusive outcome. Calls follow the shape of the dose curve; as a rule, active = well fitted inhibition curve with a large enough effect; inconclusive = small, poorly fitted or top-dose-only effect, or another doubt; inactive = no such curve, though single readings can be large or run the other way. The entries come from a sample that favours actives as a whole.
Log the outcome using a class from Y (active), N (inactive)

# compound, group.label
records = [
    ("CCCCn1c(SCC(=O)NCC2CCCO2)nc2ccc(N3CCOCC3)cc2c1=O (stereo unspecified)", "N"),
    ("Cc1c(NC(=O)CN(C)CC(=O)Nc2ccc(F)c(F)c2F)c(=O)n(-c2ccccc2)n1C", "N"),
    ("CCc1ccccc1NC1c2ccccc2C(=O)N1c1cccnc1 (stereo unspecified)", "N"),
    ("CC(Cc1ccccc1)NCCC(c1ccccc1)c1ccccc1 (stereo unspecified)", "Y"),
    ("O=C1[C@@H](c2ccccc2)[C@@H](c2ccccc2)N1c1cccnc1", "Y"),
]

Challenge: Just curious, what result did N#CCSc1nc2ccc(N3CCOCC3)cc2c(=O)n1CCc1ccccc1 get here?
Response given: Y

Challenge: Tell me the recorded outcome of this test for c1ccc2c(CNn3cnnc3)cccc2c1 .
Response given: N

Challenge: Please let me know the test result on file for COCCCNC(=O)CSc1nc2ccc(N3CCOCC3)cc2c(=O)n1CCc1ccccc1 .
Response given: N

Challenge: // outcome(item) with item = Cc1ncoc1C(=O)NCCC(c1ccccc1)c1ccccc1
Response given: N

Challenge: How did this test come out for O=C1C(=O)N(c2ccccc2)C(c2ccccc2)C1c1ccccc1 (stereo unspecified) ?
Response given: N

Challenge: Tell me the recorded outcome of this test for CCn1nc(C(=O)NNC(=O)C2CSC3(C)CCC(=O)N23)c2ccccc2c1=O (stereo unspecified) .
Response given: N

###

test.method.notes: qHTS Assay for Inhibitors of Hepatitis C Virus (HCV)
condition.description: Huh7.5.1 HCVcc-Cre infection, luciferase reporter, 44 h; series mostly up to 41.8 µM
Screen size: about 340,000 compounds; about 12,000 (3.5%) were called active. Inconclusive results (about 18%) are left out. The call rests on the fitted dose curve; in most records, active means well fitted inhibition curve with a large enough effect; inconclusive means small, poorly fitted or top-dose-only effect, or another doubt; inactive means no such curve, though single readings can be large or run the other way. This is one part of a sample in which actives are shown more often than they occur.
Log the outcome using a class from 1 = active, -1 = inactive

# molecule, group.label
rows = [
    ("Cc1ccc(S(=O)(=O)N2CCN(c3ncnc4ccccc34)CC2)cc1", 1),
    ("CC(NS(=O)(=O)c1ccc(Br)cc1)C(=O)NCC1CCCO1 (stereo not drawn)", -1),
    ("Nc1ccc2nn(-c3ccc(Cl)cc3)nc2c1", -1),
]

Challenge: What was the test verdict on Cc1nn(C)c(Oc2ccc(Cl)cc2)c1C=O ?
Response given: -1

Challenge: Please indicate how the test categorized CC(O)C(NS(=O)(=O)c1ccc(Cl)cc1)C(=O)OCc1cc([N+](=O)[O-])cc2c1OCOC2 (stereo not drawn) .
Response given: 1

Challenge: Give the logged outcome of this assay for the following molecule: CCN(CC(=O)Nc1cc(Cl)ccc1C)C(=O)CN1C(=O)NC2(CCCC2)C1=O
Response given: -1

Challenge: Which result was noted for this molecule in the test: COC(=O)c1nc(NC(=O)c2ccc(C(C)(C)C)cc2)n[nH]1
Response given: -1

Challenge: Tell me the recorded outcome of this test for Cc1ccc(S(=O)(=O)N2CCN(C)CC2)cc1 .
Response given: -1

Challenge: Field: outcome | Entry: C[C@H](NS(=O)(=O)c1ccc(Cl)cc1)C(=O)OCC(=O)N1CCOCC1
Response given: -1

Challenge: Recorded call for Nc1ccc(Oc2ccc(Cl)cc2)cc1 ?
Response given: 1

Challenge: What call does the record list for C=CC[C@@H](CC(=O)NCCO)C(=O)N[C@H](C)COC(=O)[C@@H](CC=C)CC(=O)OC(C)(C)C ?
Response given: -1

Challenge: Hi team, can someone confirm the assay call for O=C(Nc1cc(S(=O)(=O)N2CCOCC2)ccc1N1CCOCC1)c1c(F)cccc1Cl ?
Response given: -1

###

test.method.notes: qHTS Assay for Inhibitors of Hepatitis C Virus (HCV)
condition.description: Huh7.5.1 HCVcc-Cre infection, luciferase reporter, 44 h; series mostly up to 41.8 µM
Out of some 340,000 compounds screened, about 12,000 (3.5%) were called active. Not shown: some 18% with an inconclusive outcome. The call rests on the fitted dose curve; in most records, active means well fitted inhibition curve with a large enough effect; inconclusive means small, poorly fitted or top-dose-only effect, or another doubt; inactive means no such curve, though single readings can be large or run the other way. What follows is part of a selection rich in actives, with near analogues and random picks from the rest.
Choose the fitting class; nothing outside class 1 = active, class 0 = inactive is accepted.

Challenge: Which outcome was entered for the molecule O=C(O)COc1ccc(/C=N/O)cc1Br in this test?
Response given: class 0

Challenge: Please let me know the test result on file for O=c1c2ccccc2nc2n1C(CSc1ccc(Cl)cc1)CN2 (stereo unspecified) .
Response given: class 0

Challenge: Dear colleague, could you share the recorded outcome for CCCn1c(C(=O)c2ccccc2OC)nc2ccccc21 when you have a moment?
Response given: class 0

Challenge: Record request — test call for O=c1c2ccccc2nc2n1C(CSCc1cccc(C(F)(F)F)c1)CS2 (stereo unspecified)
Response given: class 1

Challenge: Just curious, what result did CCOc1cc(/C=N/O)cc(Br)c1OC get here?
Response given: class 1

###

test.method.notes: qHTS Assay for Inhibitors of Hepatitis C Virus (HCV)
condition.description: Huh7.5.1 HCVcc-Cre infection, luciferase reporter, 44 h; series mostly up to 41.8 µM
Out of some 340,000 compounds screened, about 12,000 (3.5%) were called active. About 18% were inconclusive and are not listed. Calls come from the whole dose curve; as a rule, active = well fitted inhibition curve with a large enough effect; inconclusive = small, poorly fitted or top-dose-only effect, or another doubt; inactive = no such curve, though single readings can be large or run the other way. The entries come from a sample that favours actives as a whole.
Hello, when you answer, please use one of the following outcomes: t = active, f = inactive

# compound, group.label
rows = [
    ("CCOc1cc(-c2cc(-c3ccc(OC)cc3)nc(N)c2C#N)ccc1O", "f"),
]

Challenge: Could you check what this test reported for CCc1ccc(-n2c(SCc3cc(=O)n4cc(Br)ccc4n3)nc3[nH]ncc3c2=O)cc1 ?
Response given: t

Challenge: Please let me know the test result on file for CC(=O)Nc1ccc(-c2cn3cccnc3n2)cc1 .
Response given: f

Challenge: Each compound tested received a call. Report the one for Cc1ccc(CSc2nc3[nH]ncc3c(=O)[nH]2)cc1 .
Response given: f

Challenge: Answer briefly: the call reported for Clc1ncn(CCOc2ccccc2)c1Cl in this assay.
Response given: f

Challenge: Which outcome did this test record for the compound O=C(NN=CC=Cc1ccccc1)C(O)C(O)C(=O)NN=CC=Cc1ccccc1 (stereo unspecified) ?
Response given: f

Challenge: Test call, this compound: COc1ccccc1OCCNC(=O)c1cc([N+](=O)[O-])cc([N+](=O)[O-])c1
Response given: f

Challenge: Give the logged outcome of this assay for the following compound: COC(=O)c1ccc(SCc2ccccc2)nc1
Response given: f

Challenge: Hi team, can someone confirm the assay call for CCCCOC(=O)Cn1c(=O)n(CC(=O)OCCCC)c2cc(C)ccc21 ?
Response given: f

Challenge: Recorded test call requested for CC(C)N(C(=O)CN1CCN(S(=O)(=O)c2ccc(Br)s2)CC1)C(C)C
Response given: f

Challenge: Outcome logged for COc1ccc(CCNC(=O)CSc2nc3[nH]ncc3c(=O)n2-c2cccc(C(F)(F)F)c2)cc1OC in this assay:
Response given: f

###

test.method.notes: qHTS Assay for Inhibitors of Hepatitis C Virus (HCV)
condition.description: Huh7.5.1 HCVcc-Cre infection, luciferase reporter, 44 h; series mostly up to 41.8 µM
From the text: Hepatitis C virus (HCV) infects about 200 million people in the world. Many infected people progress to chronic liver disease including cirrhosis with a risk of developing liver cancer. To date, there is no effective vaccine for hepatitis C. Current therapy based on interferon is only effective in about half of the patients and is associated with significant adverse effects. The fraction of people with HCV who can complete a successful treatment is estimated to be no more than 10 percent. […]
In all, about 340,000 compounds went through this assay and about 12,000 (3.5%) were called active. About 18% were inconclusive and are not listed. Calls follow the shape of the dose curve; as a rule, active = well fitted inhibition curve with a large enough effect; inconclusive = small, poorly fitted or top-dose-only effect, or another doubt; inactive = no such curve, though single readings can be large or run the other way. The entries come from a sample that favours actives as a whole.
Your reply should match one of these outcome classes. active, inactive

Example cases with answers are listed next.
# compound, group.label
measured = [
    ("Cc1noc(C)c1S(=O)(=O)N(C)C[C@H]1Oc2ccc(NC(=O)C3CCCCC3)cc2C(=O)N([C@H](C)CO)C[C@@H]1C", "inactive"),
    ("O=C(Nc1cccc(-c2cscn2)c1)C1CCN(Cc2ccsc2)CC1", "inactive"),
    ("CN(C)CCCNC(=O)/C=C/c1ccc(OCc2c(F)cccc2Cl)cc1", "active"),
    ("COc1ccccc1OCc1ccc(C(=O)N2CCN(C)CC2)o1", "inactive"),
    ("Cc1cc(NC(=O)COc2ccccc2C#N)no1", "inactive"),
    ("Nc1nc(-c2ccccc2)cc(-c2ccccc2)n1", "active"),
    ("O=C(/C=C/c1ccc(OCc2c(F)cccc2Cl)cc1)N1CCOCC1", "inactive"),
    ("COc1cc(C(=O)Nn2c(CC(C)C)nc3ccccc3c2=O)cc(OC)c1OC", "inactive"),
    ("CNS(=O)(=O)c1cccc(C(=O)NC2CCCc3ccccc32)c1 (configuration not stated)", "inactive"),
    ("COCCCNC(=O)/C=C/c1ccc(OCc2c(F)cccc2Cl)cc1", "inactive"),
]

Challenge: Tell me the recorded outcome of this test for Nc1ncnc2c1cnn2C1CC(O)C(CO)O1 (configuration not stated) .
Response given: inactive

Challenge: Record request — test call for COc1cccc(NC(=O)CSc2nnc(C3CCCCC3)n2N)c1
Response given: inactive

Challenge: Recorded test call requested for CCCCC[C@@H]1C=C(C(=O)O)[C@H](c2ccc(C#N)cc2)N1S(=O)(=O)c1ccc(C)cc1
Response given: inactive

Challenge: Field: outcome | Entry: Cc1ccc(S(=O)(=O)N(C)C)cc1NC(=O)COC(=O)/C=C/c1cccs1
Response given: inactive

Challenge: Kindly provide the recorded test outcome for the following compound: CCn1nc(C(=O)NNS(=O)(=O)c2cc(/C=C/C(=O)O)cc(OC)c2OC)c2ccccc2c1=O
Response given: inactive

Challenge: Lab log entry: COc1ccccc1CNC(=O)c1ccc(CS(=O)(=O)c2ccccc2)o1 — outcome as called in the assay?
Response given: inactive

Challenge: # fetch the recorded call for COc1ccc(N2CCN(C(=O)CNC(=O)c3ccc(Br)o3)CC2)cc1 here
Response given: inactive

Challenge: Please let me know the test result on file for CS(=O)(=O)c1sc2nc(-c3ccccc3)cc(-c3ccccc3)c2c1N .
Response given: inactive

Challenge: Please indicate how the test categorized CC(=O)c1cc(CN2CCC(n3nccc3NC(=O)c3ccccc3Cl)CC2)cs1 .
Response given: inactive

Challenge: # outcome recorded in this test, key = CC(C)(C)OC(=O)C[C@@H]1C/C=C\C[C@@H](CC(=O)N[C@@H](CO)Cc2ccccc2)C(=O)N2CCC[C@H]2COC1=O
Response given: inactive

Challenge: Tell me the recorded outcome of this test for OCCN1CCN(CCO)C1=S .
Response given: inactive

Challenge: How was Cc1ccc(CSc2ccc(S(=O)(=O)N3CCCCC3)cn2)cc1 classified in this test?
Response given: inactive
